assay: Cytotoxicity against human L02 cells assessed as reduction in cell growth by MTT assay; format: toxicity, cell-based
readoutName: IC50

### Prompt Determine from records and report IC50 for COc1cccc2c1C(=O)c1c(O)c3c(c(O)c1C2=O)C[C@@](O)(C(=O)CO)C[C@@H]3O[C@H]1C[C@H](N)[C@H](O)[C@H](C)O1
### Response < 1 µM

### Prompt Determine from records and report IC50 for CC(=O)O[C@@H]1OC(=O)C=C1/C=C/[C@]1(C)C2=CC[C@H]3C(C)(C)CCC[C@]3(C)[C@H]2CC[C@@H]1C
### Response 7.21 µM

### Prompt Determine from records and report IC50 for C[C@@H]1CC[C@@H]2C(=CC[C@@H]3C(C)(C)CCC[C@@]23C)[C@]1(C)C[C@H](O)C1=CC(=O)OC1
### Response > 30 µM

* * *

assay: Cytotoxicity against human L02 cells assessed as reduction in cell growth by MTT assay; format: toxicity, cell-based
readoutName: pIC50
Recall that pIC50 is obtained by taking minus log10 of the concentration measured in molar.

### Prompt Determine from records and report pIC50 for C[C@H]1CC[C@H]2C(=CC[C@H]3C(C)(C)CCC[C@]23C)[C@@]1(C)/C=C/C1=CC(=O)OC1O (stereo partly drawn)
### Response 4.87

### Prompt Determine from records and report pIC50 for CO[C@H](C[C@]1(C)C2=CC[C@H]3C(C)(C)CCC[C@]3(C)[C@H]2CC[C@@H]1C)C1=CC(=O)O[C@H]1O
### Response 5.34

### Prompt Determine from records and report pIC50 for CC(=O)O[C@H]1OC(=O)C=C1/C=C/[C@]1(C)C2=CC[C@H]3C(C)(C)CCC[C@]3(C)[C@H]2CC[C@@H]1C
### Response 5.17

### Prompt Determine from records and report pIC50 for CC(=O)O[C@@H]1C[C@@H]2[C@@]3(C)CCCC(C)(C)[C@@H]3CC[C@@]2(C)[C@@H]2C[C@@H](O)C3=C([C@H](O)OC3=O)[C@@]12C
### Response 4.62

### Prompt Determine from records and report pIC50 for C[C@@H]1CC[C@@H]2C(=CC[C@H]3C(C)(C)CCC[C@@]23C)[C@]1(C)C[C@@H](O)C1=CC(=O)OC1
### Response 4.94

### Prompt Determine from records and report pIC50 for C=C(C)CCCC1=CCC[C@H](C)[C@]1(C)CCC1=CC(=O)OC1O (stereo partly drawn)
### Response 4.87

* * *

system: MDA-MB-231; assay: Cytotoxicity against human MDA-MB-231 cells assessed as reduction in cell growth by MTT assay; type: functional, cell-based
So I've got a bunch of compounds here, and I need their IC50 values.

### Prompt Determine from records and report IC50 for CC(=O)O[C@@H]1OC(=O)C=C1/C=C/[C@]1(C)C2=CC[C@H]3C(C)(C)CCC[C@]3(C)[C@H]2CC[C@@H]1C
### Response 23.2 µM

### Prompt Determine from records and report IC50 for CC1=CCC[C@@H](C)[C@@]1(C)CC/C(C)=C/CCC1=CC(=O)OC1
### Response > 30 µM

### Prompt Determine from records and report IC50 for CO[C@H](C[C@]1(C)C2=CC[C@H]3C(C)(C)CCC[C@]3(C)[C@H]2CC[C@@H]1C)C1=CC(=O)O[C@H]1O
### Response 16 µM

### Prompt Determine from records and report IC50 for CC(=O)O[C@@H]1C[C@@H]2[C@@]3(C)CCCC(C)(C)[C@@H]3CC[C@@]2(C)[C@@H]2C[C@@H](O)C3=C([C@H](O)OC3=O)[C@@]12C
### Response > 30 µM

### Prompt Determine from records and report IC50 for CC(C)=CCC[C@@]1(C)CCC=C2[C@@H]1CC[C@H](C)[C@]2(C)CCC1=CC(=O)OC1
### Response > 30 µM

### Prompt Determine from records and report IC50 for COc1cccc2c1C(=O)c1c(O)c3c(c(O)c1C2=O)C[C@@](O)(C(=O)CO)C[C@@H]3O[C@H]1C[C@H](N)[C@H](O)[C@H](C)O1
### Response < 1 µM

### Prompt Determine from records and report IC50 for C[C@@H]1CC[C@@H]2C(=CC[C@H]3C(C)(C)CCC[C@@]23C)[C@]1(C)C[C@@H](O)C1=CC(=O)OC1
### Response > 30 µM

### Prompt Determine from records and report IC50 for C=C(C)CCCC1=CCC[C@H](C)[C@]1(C)CCC1=CC(=O)OC1O (stereo partly specified)
### Response > 30 µM

### Prompt Determine from records and report IC50 for CC(=O)O[C@H]1OC(=O)C=C1/C=C/[C@]1(C)C2=CC[C@H]3C(C)(C)CCC[C@]3(C)[C@H]2CC[C@@H]1C
### Response 29 µM

### Prompt Determine from records and report IC50 for C[C@@H]1CC[C@@H]2C(=CC[C@@H]3C(C)(C)CCC[C@@]23C)[C@]1(C)C[C@H](O)C1=CC(=O)OC1
### Response > 30 µM

### Prompt Determine from records and report IC50 for C[C@H]1CC[C@H]2C(=CC[C@H]3C(C)(C)CCC[C@]23C)[C@@]1(C)/C=C/C1=CC(=O)OC1O (stereo partly specified)
### Response > 30 µM
